experiment_notes: Transdermal delivery of melatonin: plasma level of melatonin after applying composition to skin of a subject
conditions: human, plasma, topical, Plasma level of melatonin, 6-(Dimethylamino)hexyl 2-acetoxybenzoate hydrochloride 203.56 mM, 0.375 mL applied to skin, 4 hr after transdermal administration
experimental_readout: concentration at 4 h (ng/mL)
Give bare numbers, in ng/mL.

Ask: Need concentration at 4 h, item COc1ccc2[nH]cc(CCNC(C)=O)c2c1 [Melatonin]
Reply: 2.1

###

experiment_notes: Transdermal delivery of melatonin: plasma level of melatonin after applying composition to skin of a subject
conditions: human, plasma, topical, 3 mg, Plasma level of melatonin, Isoleucine isopropyl ester 333.76 mM, 0.60 mL applied to skin, 1 hr after transdermal administration
experimental_readout: concentration at 1 hr (ng/mL)
One number for each entry, in ng/mL.

Ask: Need concentration at 1 hr, item COc1ccc2[nH]cc(CCNC(C)=O)c2c1 [Melatonin]
Reply: 1.7
